# TARGET: human 11β-HSD1 enzyme (Homo sapiens, UniProt P28845)
# Construct: stably transfected with a construct containing the full-length gene coding for the human 11β-HSD1 enzyme; expressed in transfected cells; HEK293/11β-HSD1 cells)
# Sequence (P28845 whole entry): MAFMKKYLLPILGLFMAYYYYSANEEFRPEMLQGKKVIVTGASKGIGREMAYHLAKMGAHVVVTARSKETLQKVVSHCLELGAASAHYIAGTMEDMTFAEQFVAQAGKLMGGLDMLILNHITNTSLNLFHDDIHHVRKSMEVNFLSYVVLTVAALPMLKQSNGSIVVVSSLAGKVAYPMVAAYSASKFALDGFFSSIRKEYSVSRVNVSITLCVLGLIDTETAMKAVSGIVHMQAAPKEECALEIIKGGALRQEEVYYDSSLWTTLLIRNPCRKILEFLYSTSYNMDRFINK
# TEST DESCRIPTION: Cellular in vitro 11β-HSD1 enzyme inhibition assay (SPA, HEK293/11β-HSD1 cells)
# Assay type: cell-based
# CONDITION DETAILS: read-out: IC50 for 11β-HSD1 (HEK293)
Listed here: items and their measured IC50.

| SMILES REPR | IC50 |
| --- | --- |
| O=C(c1csc(-c2cn[nH]c2)c1)N1CCC(F)(c2ccc(Cl)cc2Cl)CC1 | ≤ 500 nM |
| COC1(c2ccccc2Cl)CCN(C(=O)c2csc(-c3cn[nH]c3)c2)CC1 | ≤ 500 nM |
| Cc1cccc(F)c1C1(O)CCN(C(=O)c2csc(-c3cn[nH]c3)c2)CC1 | ≤ 500 nM |
| O=C(c1csc(-c2cn[nH]c2)c1)N1CCC(F)(c2ccc(Cl)cc2)CC1 | 500 to 1000 nM |
| O=C(c1csc(-c2cn[nH]c2)c1)N1CCC(F)(c2cc(F)ccc2Cl)CC1 | ≤ 500 nM |

###

# TEST DESCRIPTION: In vitro human liver microsomal stability assay
# Assay type: in vitro ADME
# CONDITION DETAILS: human liver microsomes

| COMPOUND | % Parent Remaining at 30 min |
| --- | --- |
| O=C(c1csc(-c2cn[nH]c2)c1)N1CCC(c2ccccc2F)CC1 [BB-07] | + (0-30% +) |
| N#Cc1ccccc1C1CCN(C(=O)c2csc(-c3cn[nH]c3)c2)CC1 [BB-04] | ++ (31-60% ++) |
| O=C(c1csc(-c2cn[nH]c2)c1)N1C2CCC1CC(O)(c1ccccc1Cl)C2 (stereo not drawn) [AA-30] | ++ (31-60% ++) |
| O=C(c1csc(-c2cn[nH]c2)c1)N1C2CCC1CC(c1ccccc1)C2 (stereo not drawn) [BB-08] | ++ (31-60% ++) |
| COC1(c2ccccc2Cl)CCN(C(=O)c2csc(-c3cn[nH]c3)c2)CC1 [AA-33] | + (0-30% +) |
| O=C(c1csc(-c2cn[nH]c2)c1)N1CCC(F)(c2ccccc2F)CC1 [AA-18] | ++ (31-60% ++) |

###

# TARGET: human 11β-HSD1 enzyme (Homo sapiens)
# Construct: stably transfected with a construct containing the full-length gene coding for the human 11β-HSD1 enzyme; expressed in transfected cells; HEK293/11β-HSD1 cells)
# TEST DESCRIPTION: Cellular in vitro 11β-HSD1 enzyme inhibition assay (SPA, HEK293/11β-HSD1 cells)
# Format: cell-based
# CONDITION DETAILS: HEK293 cells stably transfected with human 11β-HSD1; Table 1; read-out: IC50 for 11β-HSD1 (HEK293)
# Description: Cellular In Vitro 11β-HSD1 Enzyme Inhibition Assay Compounds were assessed by a Scintillation Proximity Assay (SPA) performed according to the following protocol: […] Following this incubation, 50 μL of the assay solution was transferred to each well of a 96-well scintillation microplate. […] The plate was read on a scintillation counter suitable for 96-well microplates. […]
pIC50: −log10 of the molar value.

| COMPOUND | pIC50 |
| --- | --- |
| COC1(c2ccccc2)CCN(C(=O)c2csc(-c3cn[nH]c3)c2)CC1 | 6.96 |
| O=C(c1csc(-c2cn[nH]c2)c1)N1C2CCC1CC(O)(c1ccccc1Cl)C2 (stereo not drawn) | 7.82 |
| O=C(c1csc(-c2cn[nH]c2)c1)N1C2CCC1CC(O)(c1ccccc1)C2 (stereo not drawn) | 7.68 |
| O=C(c1csc(-c2cn[nH]c2)c1)N1CCC(F)(c2ccccc2Cl)CC1 | 7.38 |
| Cc1n[nH]cc1-c1cc(C(=O)N2CCC(c3ccccc3)CC2)cs1 | 6.20 |
| COC1(c2ccccc2Cl)CCN(C(=O)c2csc(-c3cn[nH]c3)c2)CC1 | 7.72 |
| COc1ccccc1C1CCN(C(=O)c2csc(-c3cn[nH]c3)c2)CC1 | 6.97 |
| O=C(c1csc(-c2cn[nH]c2)c1)N1CCC(O)(c2ccccc2F)CC1 | 7.36 |
| Cc1cccc(F)c1C1(O)CCN(C(=O)c2csc(-c3cn[nH]c3)c2)CC1 | 7.42 |
